The origin of these recorded values is patent US20250230155A1.

# reported pEC50; entries follow
# STUDY SYSTEM: human mAChR M4 (Homo sapiens, UniProt P08173)
# Construct: expressed in transfected cells
# Sequence (P08173 1-479): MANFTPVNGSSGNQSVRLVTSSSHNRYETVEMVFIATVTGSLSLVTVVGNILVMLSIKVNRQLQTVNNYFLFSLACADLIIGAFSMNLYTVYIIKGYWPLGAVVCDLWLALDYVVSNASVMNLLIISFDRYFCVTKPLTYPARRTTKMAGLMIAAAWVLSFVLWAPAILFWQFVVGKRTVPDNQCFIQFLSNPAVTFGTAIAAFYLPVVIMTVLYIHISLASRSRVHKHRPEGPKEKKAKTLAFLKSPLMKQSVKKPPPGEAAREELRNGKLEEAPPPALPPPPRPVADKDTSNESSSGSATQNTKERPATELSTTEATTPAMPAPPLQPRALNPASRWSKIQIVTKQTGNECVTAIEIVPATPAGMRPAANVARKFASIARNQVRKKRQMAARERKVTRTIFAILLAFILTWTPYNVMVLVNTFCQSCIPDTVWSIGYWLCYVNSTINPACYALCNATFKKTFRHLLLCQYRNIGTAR
# METHOD SUMMARY: mAChR M4 cell-based functional assay (calcium mobilization, CHO-K1 hM4-Gqi5 cells)
# EXPERIMENTAL CONTEXT: positive allosteric modulator activity, increase in the EC20 acetylcholine response, CHO-K1 hM4-Gqi5 cells; read-out: Human M4 EC50
Interpret pEC50 as the negative base-10 log of the concentration measured in mol/L.

In the examples that follow, each entry is paired with its recorded pEC50.
Cc1ccc(Oc2cnc3c(c2)CN(c2nnc(C#N)c(C)c2C)CC3)c(F)c1	6.49
Cc1c(C#N)nnc(N2Cc3cc(C(F)(F)F)cnc3CC2C)c1C (centres unmarked)	6.68
Cc1cnc2c(c1)CN(c1nnc(C(=O)NCc3ccncc3)c(C)c1C)CC2	6.54
Cc1cc(C(=O)NC2(c3ccccn3)CC2)nnc1N1CCc2ncc(N3CCCn4nccc43)cc2C1	7.33
Cc1cc(C(=O)NCc2cnc3ccccc3c2)cnc1N1CCc2ncc(C(F)(F)F)cc2C1	5.94
Cc1cc(C(=O)N2CC(C(F)F)C2)nnc1N1CCc2ncc(-c3ccnn3C)cc2C1	7.04

# query: pEC50 of entry `[2H]C1([2H])Cc2ncc(Nc3cc(C)ncc3F)cc2C([2H])([2H])N1c1nnc(C#N)c(C)c1C` 7.59

Can you look up the measured pEC50 of `Cc1c(C#N)nnc(N2CCc3ncc(Oc4ccc(F)cc4F)cc3C2)c1C` for me? 6.57

Recorded pEC50 for `Cc1nc(Cl)c(C)c(N2CCc3ncc(Oc4cccnc4)cc3C2)n1` , please? 6.43

Reported pEC50, compound Cc1cc(C#N)cnc1N1Cc2cc(N3CCOCC3)cnc2C(C)C1 (centres unmarked) [Example 405] : ____ 6.38

Name the reported pEC50 value associated with the compound `Cc1cc(C(=O)N2CCCC2)nnc1N1CCc2ncc(N3CCCn4nccc43)cc2C1` 6.66

* * *

# STUDY SYSTEM: human mAChR M4 (Homo sapiens)
# Construct: expressed in transfected cells
# Sequence (P08173 1-479): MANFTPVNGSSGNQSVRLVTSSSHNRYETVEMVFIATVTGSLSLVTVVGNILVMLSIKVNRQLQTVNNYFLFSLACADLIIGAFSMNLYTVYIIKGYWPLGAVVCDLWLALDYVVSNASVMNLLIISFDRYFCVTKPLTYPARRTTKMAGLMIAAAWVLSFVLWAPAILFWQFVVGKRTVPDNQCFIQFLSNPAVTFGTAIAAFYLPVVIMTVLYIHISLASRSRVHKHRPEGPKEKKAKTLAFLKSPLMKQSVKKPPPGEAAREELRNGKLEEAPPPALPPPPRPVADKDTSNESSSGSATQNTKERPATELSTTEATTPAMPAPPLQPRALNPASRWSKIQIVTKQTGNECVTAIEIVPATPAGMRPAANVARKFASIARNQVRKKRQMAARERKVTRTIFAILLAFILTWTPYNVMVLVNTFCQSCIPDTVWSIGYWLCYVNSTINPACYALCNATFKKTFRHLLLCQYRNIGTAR
# METHOD SUMMARY: mAChR M4 cell-based functional assay (calcium mobilization, CHO-K1 hM4-Gqi5 cells)
# EXPERIMENTAL CONTEXT: positive allosteric modulator activity, increase in the EC20 acetylcholine response, CHO-K1 hM4-Gqi5 cells; read-out: Human M4 EC50
Recorded pEC50 for the following compounds
Entry type: numeric. Quantity: pEC50, the -log10 of concentration in molar units.

CCn1cc(-c2cnc3c(c2)CN(c2ncc(C#N)cc2C)CC3)cn1	6.58
Cc1cnccc1-c1cnc2c(c1)CN(c1nnc(C#N)c(C)c1C)CC2	6.70
Clc1nc2c(c(N3CCc4ncc(N5CCOc6ncccc65)cc4C3)n1)COC2	6.43
Cc1cc(C(=O)NCc2ccncc2)nnc1N1CCc2ncc(CC(F)(F)F)cc2C1	7.22
Cc1cc(C(=O)NCc2ccc(-n3ccnc3)nc2)cnc1N1CCc2ncccc2C1	5.45

For the compound shown here, `Cc1cc(Nc2cnc3c(c2)CN(c2ncc(C#N)cc2C)CC3)c(F)cn1` , give the reported pEC50. 8.40

Look up pEC50: `Cc1nn(C)cc1-c1cnc2c(c1)CN(c1nnc(C#N)c(C)c1C)CC2` 6.31

What does the data say about its pEC50? Entry: `Cc1cc(C(=O)N2CC(C)(F)C2)nnc1N1CCc2ncc(N3CCO[C@H](C)C3)cc2C1` 7.00

For the compound `Cc1nc(Cl)c(C)c(N2CCc3ncccc3C2)n1` , what pEC50 is on record? 5.81
